This collection of values is drawn from ChEMBL document CHEMBL1132005.

Field: Ratio. Provide a value for each of the molecules that follow.
- target system: DNA gyrase (Escherichia coli) (UniProt P0AES6+P0AES4)
- method description: In vitro inhibition of supercoiling activity of Escherichia coli DNA gyrase as the ratio of IC50 of Novobiocin and IC50 of compound
- Type: protein-complex assay
Answer with a number only.

Which Ratio reading was recorded for the molecule CO[C@@H]1[C@@H](OC(=O)c2ccc(C)[nH]2)[C@@H](O)[C@H](Oc2ccc3c(CN4CCC(O)CC4)cc(=O)oc3c2C)OC1(C)C ?
0.22

Which Ratio reading was recorded for the molecule CO[C@@H]1[C@@H](OC(=O)c2ccc(C)[nH]2)[C@@H](O)[C@H](Oc2ccc3c(CN4CCN(C)CC4)cc(=O)oc3c2C)OC1(C)C ?
0.46

Which Ratio reading was recorded for the molecule CO[C@@H]1[C@@H](OC(=O)c2ccc(C)[nH]2)[C@@H](O)[C@H](Oc2ccc3c(OCCN(C)C)cc(=O)oc3c2C)OC1(C)C ?
0.57

Which Ratio reading was recorded for the molecule CO[C@@H]1[C@@H](OC(=O)c2ccc(C)[nH]2)[C@@H](O)[C@H](Oc2ccc3c(CSc4ncc[nH]4)cc(=O)oc3c2C)OC1(C)C ?
0.35

Which Ratio reading was recorded for the molecule CO[C@@H]1[C@@H](OC(=O)c2ccc(C)[nH]2)[C@@H](O)[C@H](Oc2ccc3c(CN4CCNCC4)cc(=O)oc3c2C)OC1(C)C ?
2.3

Which Ratio reading was recorded for the molecule CO[C@@H]1[C@@H](OC(=O)c2ccc(C)[nH]2)[C@@H](O)[C@H](Oc2ccc3c(OCCN4CCN(C)CC4)c(Cl)c(=O)oc3c2C)OC1(C)C ?
0.33

Which Ratio reading was recorded for the molecule CO[C@@H]1[C@@H](OC(=O)c2ccc(C)[nH]2)[C@@H](O)[C@H](Oc2ccc3c(CN)cc(=O)oc3c2C)OC1(C)C ?
1.8

Which Ratio reading was recorded for the molecule CO[C@@H]1[C@@H](OC(=O)c2ccc(C)[nH]2)[C@@H](O)[C@H](Oc2ccc3c(OCCN4CCOC(CO)C4)cc(=O)oc3c2C)OC1(C)C (stereo not given in full) ?
0.25

Which Ratio reading was recorded for the molecule CO[C@@H]1[C@@H](OC(=O)c2ccc(C)[nH]2)[C@@H](O)[C@H](Oc2ccc3c(CSc4nc[nH]n4)cc(=O)oc3c2C)OC1(C)C ?
0.4

Which Ratio reading was recorded for the molecule CO[C@@H]1[C@@H](OC(=O)c2ccc(C)[nH]2)[C@@H](O)[C@H](Oc2ccc3c(OCCN)cc(=O)oc3c2C)OC1(C)C ?
0.81

----------
- target system: DNA gyrase (Escherichia coli) (UniProt P0AES6+P0AES4)
- method description: In vitro inhibition of supercoiling activity of Escherichia coli DNA gyrase as the ratio of IC50 of Novobiocin and IC50 of compound
- Assay type: protein-complex assay
Field: Ratio. Provide a value for each of the compounds that follow.
Answer with a number only.

Which Ratio reading was recorded for the compound CO[C@@H]1[C@@H](OC(=O)c2ccc(C)[nH]2)[C@@H](O)[C@H](Oc2ccc3c(CN4CCNCC4c4ccccc4)cc(=O)oc3c2C)OC1(C)C (stereo partly drawn) ?
0.17

Which Ratio reading was recorded for the compound CO[C@@H]1[C@@H](OC(=O)c2ccc(C)[nH]2)[C@@H](O)[C@H](Oc2ccc3c(Cn4ccnc4)cc(=O)oc3c2C)OC1(C)C ?
1

Which Ratio reading was recorded for the compound CO[C@@H]1[C@@H](OC(=O)c2ccc(C)[nH]2)[C@@H](O)[C@H](Oc2ccc3c(OCCn4cnc(-c5cccnc5)c4)cc(=O)oc3c2C)OC1(C)C ?
0.63

Which Ratio reading was recorded for the compound CO[C@@H]1[C@@H](OC(=O)c2ccc(C)[nH]2)[C@@H](O)[C@H](Oc2ccc3c(OCCn4cncn4)cc(=O)oc3c2C)OC1(C)C ?
0.57

Which Ratio reading was recorded for the compound CO[C@@H]1[C@@H](OC(=O)c2ccc(C)[nH]2)[C@@H](O)[C@H](Oc2ccc3c(OCCN4CCN(C)CC4)cc(=O)oc3c2C)OC1(C)C ?
0.5

Which Ratio reading was recorded for the compound CO[C@@H]1[C@@H](OC(=O)c2ccc(C)[nH]2)[C@@H](O)[C@H](Oc2ccc3c(CN4CCCC4)cc(=O)oc3c2C)OC1(C)C ?
0.5

Which Ratio reading was recorded for the compound CO[C@@H]1[C@@H](OC(=O)c2ccc(C)[nH]2)[C@@H](O)[C@H](Oc2ccc3c(OCCN4CCNC(c5ccccc5)C4)cc(=O)oc3c2C)OC1(C)C (stereo partly drawn) ?
0.33

Which Ratio reading was recorded for the compound CNCCOc1cc(=O)oc2c(C)c(O[C@@H]3OC(C)(C)[C@H](OC)[C@@H](OC(=O)c4ccc(C)[nH]4)[C@H]3O)ccc12 ?
2.3

Which Ratio reading was recorded for the compound CO[C@@H]1[C@@H](OC(=O)c2ccc(C)[nH]2)[C@@H](O)[C@H](Oc2ccc3c(OCCN4CCOCC4)cc(=O)oc3c2C)OC1(C)C ?
0.22

Which Ratio reading was recorded for the compound CO[C@@H]1[C@@H](OC(=O)c2ccc(C)[nH]2)[C@@H](O)[C@H](Oc2ccc3c(OCCSc4ncc[nH]4)cc(=O)oc3c2C)OC1(C)C ?
0.33

Which Ratio reading was recorded for the compound CO[C@@H]1[C@@H](OC(=O)c2ccc(C)[nH]2)[C@@H](O)[C@H](Oc2ccc3c(CN4CCC[C@H]4CO)cc(=O)oc3c2C)OC1(C)C ?
0.3

Which Ratio reading was recorded for the compound CO[C@@H]1[C@@H](OC(=O)c2ccc(C)[nH]2)[C@@H](O)[C@H](Oc2ccc3c(OCCN4CCOCC4)c(Cl)c(=O)oc3c2C)OC1(C)C ?
0.17

Which Ratio reading was recorded for the compound CO[C@@H]1[C@@H](OC(=O)c2ccc(C)[nH]2)[C@@H](O)[C@H](Oc2ccc3c(OCCN4CCC[C@H]4CO)cc(=O)oc3c2C)OC1(C)C ?
0.66
